- SYSTEM UNDER TEST: human TRPML1 (Homo sapiens, UniProt Q9GZU1)
- Sequence (Q9GZU1 whole entry L15A/L16A/L577A/L578A, form open): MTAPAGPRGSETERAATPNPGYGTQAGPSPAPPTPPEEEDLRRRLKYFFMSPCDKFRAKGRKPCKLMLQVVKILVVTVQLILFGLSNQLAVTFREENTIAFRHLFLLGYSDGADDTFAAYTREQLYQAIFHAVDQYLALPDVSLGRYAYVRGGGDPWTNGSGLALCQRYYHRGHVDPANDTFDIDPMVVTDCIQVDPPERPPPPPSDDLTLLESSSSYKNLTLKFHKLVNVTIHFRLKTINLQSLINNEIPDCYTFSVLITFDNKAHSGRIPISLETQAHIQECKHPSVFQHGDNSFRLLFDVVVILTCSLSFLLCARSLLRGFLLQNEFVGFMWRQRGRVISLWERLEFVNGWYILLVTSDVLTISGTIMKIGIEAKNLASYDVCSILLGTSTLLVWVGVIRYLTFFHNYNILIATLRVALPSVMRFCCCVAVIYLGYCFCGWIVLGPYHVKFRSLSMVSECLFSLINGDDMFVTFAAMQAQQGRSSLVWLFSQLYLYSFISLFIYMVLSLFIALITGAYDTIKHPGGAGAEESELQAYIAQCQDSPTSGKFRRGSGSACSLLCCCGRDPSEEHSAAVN
- MEASUREMENT NOTES: Fluorescent TRPML1 assay (Fluo4-AM calcium fluorescence, HEK-293 Trex cells)
- Assay type: cell-based
- DETAILS: Table 3, compounds 101-177
Listing: EC50 of selected compounds

>  <CHEMICAL STRUCTURE>
CC(C)C(=O)N1CCN(c2ncnc3c2c(-c2ccccc2F)cn3-c2cc(C#N)ccn2)CC1

>  <EC50>
100 to 500 nM

$$$$
>  <CHEMICAL STRUCTURE>
CC(C)C(=O)N1CCN(c2ncnc3c2c(-c2ccccc2F)cn3-c2cc(C#N)ccn2)[C@H](C)C1

>  <EC50>
100 to 500 nM

$$$$
>  <CHEMICAL STRUCTURE>
CC(C)(O)C(=O)N1CCN(c2ncnc3c2c(-c2ccccc2F)cn3-c2cc(C#N)ccn2)C2(CC2)C1

>  <EC50>
< 100 nM

$$$$
>  <CHEMICAL STRUCTURE>
CC(C)C(=O)N1C[C@H](C)N(c2ncnc3c2c(-c2ccccc2F)cn3-c2cc(Cl)ccn2)C[C@H]1C

>  <EC50>
< 100 nM

$$$$
>  <CHEMICAL STRUCTURE>
C[C@H]1CN(C(=O)C2CC2)CCN1c1ncnc2c1c(-c1ccccc1F)cn2-c1cc(C#N)ccn1

>  <EC50>
< 100 nM

$$$$
>  <CHEMICAL STRUCTURE>
C[C@@H]1CN(c2ncnc3c2c(-c2ccccc2F)cn3-c2cc(C#N)ccn2)CCN1C(=O)C(C)(C)F

>  <EC50>
< 100 nM

$$$$

# input for lookup
Can you share its EC50? I mean this compound: C[C@H]1CN(C(=O)C(C)(C)C)CCN1c1ncnc2c1c(-c1ccccc1)cn2-c1cc(C#N)ccn1
< 100 nM

----------
- SYSTEM UNDER TEST: human TRPML1 (Homo sapiens, UniProt Q9GZU1)
- MEASUREMENT NOTES: Fluorescent TRPML1 assay (Fluo4-AM calcium fluorescence, HEK-293 Trex cells)
- Assay type: cell-based
- DETAILS: Table 3, compounds 101-177
pEC50: −log10 of the molar value.
QUANTITY MEASURED: pEC50

>  <CHEMICAL STRUCTURE>
C[C@@H]1CN(c2ncnc3c2c(-c2ccccc2F)cn3-c2cc(C#N)ccn2)CCN1C(=O)C1(F)CC1

>  <pEC50>
> 7.00

$$$$
>  <CHEMICAL STRUCTURE>
C[C@@H]1CN(c2ncnc3c2c(-c2ccccc2F)cn3-c2cc(C#N)ccn2)[C@@H](C)CN1C(=O)C(C)(C)O

>  <pEC50>
> 7.00

$$$$
>  <CHEMICAL STRUCTURE>
CC(C)(O)C(=O)N1CCN(c2ncnc3c2c(-c2ccccc2F)cn3-c2cc(C#N)ccn2)C(C)(C)C1

>  <pEC50>
> 7.00

$$$$
>  <CHEMICAL STRUCTURE>
CC(C)C(=O)N1CCN(c2ncnc3c2c(-c2ccccc2F)cn3-c2nccc(C#N)n2)[C@@H](C)C1

>  <pEC50>
5.70 to 6.30

$$$$
>  <CHEMICAL STRUCTURE>
Cc1nccnc1-c1cn(-c2cccc(Cl)c2)c2ncnc(N3C[C@@H](C)N(C(=O)C(C)C)C[C@@H]3C)c12

>  <pEC50>
5.70 to 6.30

$$$$
>  <CHEMICAL STRUCTURE>
CC(C)C(=O)N1CCN(c2ncnc3c2c(-c2ccccc2F)cn3-c2cc(C#N)ccn2)C(C)(C)C1

>  <pEC50>
> 7.00

$$$$
>  <CHEMICAL STRUCTURE>
C[C@H]1CN(C(=O)C(C)(C)O)CCN1c1ncnc2c1c(N1CCC1)cn2-c1cc(C#N)ccn1

>  <pEC50>
6.30 to 7.00

$$$$
>  <CHEMICAL STRUCTURE>
CC(C)C(=O)N1CCN(c2ncnc3c2c(-c2ccccc2F)cn3-c2cc(C#N)ccn2)C2(CC2)C1

>  <pEC50>
> 7.00

$$$$
>  <CHEMICAL STRUCTURE>
CC(C)C(=O)N1CCN(c2ncnc3c2c(-c2ccccc2F)cn3-c2cc(C#N)ccn2)C[C@H]1C

>  <pEC50>
> 7.00

$$$$
>  <CHEMICAL STRUCTURE>
CCCN(CC)c1cn(-c2cc(C#N)ccn2)c2ncnc(N3CCN(C(=O)C(C)(C)C)C[C@@H]3C)c12

>  <pEC50>
> 7.00

$$$$

Record request: pEC50 value, item CC(C)C(=O)N1CCN(c2ncnc3c2c(-c2ccccc2F)cn3-c2cc(C#N)ncn2)[C@@H](C)C1
6.30 to 7.00

Look up pEC50 for this compound: C[C@@H]1CN(c2ncnc3c2c(-c2ccccc2F)cn3-c2cc(C#N)ccn2)CCN1C(=O)C1CC1
> 7.00

Can you look up the measured pEC50 of C[C@H]1CN(C(=O)CC(C)(C)C)CCN1c1ncnc2c1c(-c1ccccc1F)cn2-c1cc(C#N)ccn1 for me?
> 7.00

Need pEC50 of CC(C)C(=O)N1CCN(c2ncnc3c2c(N2CCCC2)cn3-c2cc(C#N)ccn2)C[C@H]1C , thanks.
5.70 to 6.30

Fill in the blank: the reported pEC50 of C[C@@H]1CN(c2ncnc3c2c(-c2ccccc2F)cn3-c2cc(C#N)ccn2)CCN1C(=O)C(C)(C)C is ____.
> 7.00
